METRIC: melting point

Guide cases for melting point, answers given:
• O=C1Nc2ccccc2N(C(=O)CCN2CCCCC2)c2ccc(Cl)cc21 = 170 to 172 °C
• CC(C)(C)OC(=O)NC1CCC(CON2C(=O)c3ccccc3C2=O)C1 (stereo unspecified) = 162 to 163 °C
• Oc1ccc2nccc(Cl)c2c1 = 223 °C
• CC1CCC(NC(=O)NS(=O)(=O)c2ccc(CCNC(=O)N3CCCCC3=O)cc2)C1 (stereo unspecified) = 166 to 168 °C
• Cc1ccc(S(=O)(=O)NC(=O)C2C(=O)CC(C)CC2=O)cc1 (stereo unspecified) = 122 °C

[in] Answer with the recorded melting point for the compound listed here: COc1ccc2oc(C(=O)OCC(C)(C)C(=O)C(C)(C)C)cc2c1
[out] 81.5 to 82.5 °C

[in] Answer with the recorded melting point for the compound listed here: COc1cc(OC)c2c(=O)[nH]c(-c3ccc(OC)c(N4CCN(C(C)C)CC4)n3)nc2c1
[out] 208 to 210 °C

[in] Answer with the recorded melting point for the compound listed here: CCC1(CCCCN2CCN(c3ccccn3)CC2)C(=O)Nc2c(Cl)cc(Cl)cc21 (stereo unspecified)
[out] 144 to 146 °C

[in] Answer with the recorded melting point for the compound listed here: COc1cc(COc2cc(/C=C/c3ccccn3)n(-c3ccccc3)n2)ccc1OCc1nc(-c2ccco2)oc1C
[out] 122 to 123 °C

[in] Answer with the recorded melting point for the compound listed here: CCSC(=O)CCS(=O)(=O)CC
[out] 35 to 36 °C

----------
METRIC: melting point

* O=C1CCC2=C(CCc3cc(Cl)cc(Cl)c32)N1 | 212 to 214 °C

[in] Answer with the recorded melting point for the compound listed here: COCOc1ccc(C=O)c(Cl)c1OCc1ccccc1
[out] 66 to 67 °C

[in] Answer with the recorded melting point for the compound listed here: C=C(C)CO[C@H]1[C@H](C)OC(=O)[C@@H](NC(=O)c2nccc(OC)c2OCOC(C)=O)COC(=O)[C@@H]1Cc1ccccc1
[out] 102 to 104 °C

[in] Answer with the recorded melting point for the compound listed here: CSc1ccc(/C=C2/C(C)=C(CC=NO)c3cc(F)ccc32)cc1
[out] 146 to 150 °C

[in] Answer with the recorded melting point for the compound listed here: COc1ccc(C2S(=O)(=O)CCCS2(=O)=O)cc1OC
[out] 243 to 245 °C

----------
The following compounds are listed with their measured melting point values.

* Nc1cc(-c2ccccc2)c(=O)n2c1-c1sccc1CC2 | 180 to 182 °C
* CCCCCCCCCCCCOC(=O)c1cccc(NC(=O)NS(=O)(=O)c2ccc(C)cc2)c1 | 110 to 112 °C
* O=CC1c2ccccc2C(C=O)c2ccccc21 (centres undefined) | 132 to 135 °C
* FC(F)(F)c1cnc(CNC(=S)Nc2ccccc2Cl)c(Cl)c1 | 126 °C
* Cn1cc(C2=C(c3c[nH]c4cc([N+](=O)[O-])ccc34)C(=O)NC2=O)c2ccccc21 | > 260 °C
* CC(Cl)C(=O)c1ncc(Cl)cc1F (centres undefined) | 29 to 32 °C

[in] Answer with the recorded melting point for the compound listed here: COc1ccc(C(=O)O)c(N)c1OC
[out] 183 to 184 °C

[in] Answer with the recorded melting point for the compound listed here: Cc1cccc2c1NC(=O)c1cccnc1N2
[out] 233 to 235 °C

[in] Answer with the recorded melting point for the compound listed here: COc1cc(OC)nc(NC(=O)NS(=O)(=O)c2ccccc2C2CCOC2=O)n1 (centres undefined)
[out] 164 to 166 °C
